conditions: pH 9.2
test readout: logD
Reply with just the number.

Consider the molecule Cc1cc(C(=O)NCCc2c(C)[nH]c3ccccc23)ccc1[N+](=O)[O-] and give its recorded logD.
4.12

====

test: method code SF, from DOI: 10.1016/j.ejps.2012.10.019, PMID: 23131797; details: pH 5.0
logD vs 4: less than gives Condition met; not less than gives Condition not met.

# example entries with known answers
CN(C1=NS(=O)(=O)c2ccccc21)c1ccc(OC(=O)c2ccccc2)cc1 : Condition not met
CN(Cc1ccccc1)S(=O)(=O)c1ccc(NC(=O)Cc2ccc(F)cc2)cc1 : Condition not met
CC(C)(C)NC(=S)Nc1ccc(F)cc1 : Condition met
CCOC(=O)N1CCN(C(=O)/C=C/c2ccc(Cl)c(Cl)c2)CC1 : Condition not met
N#Cc1c(SCC(=O)OCc2ccccc2)nsc1SCC(=O)OCc1ccccc1 : Condition not met
O=C(CSCc1ccccc1)Nc1ccc(-c2ccc([N+](=O)[O-])cc2)cc1 : Condition not met
COc1ccc(C(=O)CSc2nnc(-c3ccccc3)o2)cc1 : Condition not met
N#CCc1nc(-c2ccc3c(c2)OCCO3)cs1 : Condition met
CC(=O)Nc1cccc(C(=O)OCC(=O)c2c(N)n(C)c(=O)n(C)c2=O)c1 : Condition met

Continue with the next compound.
Quick check: logD of O=C(CS(=O)(=O)Cc1ccccc1)Nc1ccc2c(c1)OCCO2 under 4?
Condition met

====

Below, each entry is listed alongside its reported logD.
assay: method code SF, from DOI: 10.1016/j.ejps.2012.10.019, PMID: 23131797; conditions: pH 5.0
Enter a number only.

Please review the following examples before continuing.
CCOC(=O)c1[nH]c2c(c1C)C(Cl)=C(C=O)CC2 : 3.92
CCn1cc(-c2nc3c4c(C)c(C)sc4ncn3n2)cn1 : 3.77
O=C1c2ccc(-c3ccc4c(c3)C(=O)N(CCO)C4=O)cc2C(=O)N1CCO : 3.19
C=CCn1c(C)c(C=C2C(=O)OC3(CCCCC3)OC2=O)c2ccccc21 : 4.62
O=C(COc1ccc2ccccc2c1)N1CCN(S(=O)(=O)c2ccc3c(c2)OCCO3)CC1 : 4.47

State its logD for this compound: CC(=O)c1cc2ccccc2o1
2.15

Output logD of CCOc1ccc(NC=C(S(=O)(=O)c2ccc(C)cc2)S(=O)(=O)c2ccc(C)cc2)cc1
5.64

Name the recorded logD of the compound listed here: Cc1c(C(=O)Nc2ccc(S(=O)(=O)N3CCCCCC3)cc2)oc2ccc(F)cc12
5.68

Fill in logD for record Clc1ccc(CSc2ncccn2)cc1Cl
4.33

Please give measured logD of the following entry: Cn1c2ccccc2n2c3nc(C#N)c(C#N)nc3c(C#N)c12
3.61

Name the recorded logD of the compound listed here: CN(C)S(=O)(=O)c1ccc(C(=O)OC2CCCCC2)cc1
4.27

====

Readings of logD for the listed molecules
details: pH 5.0
The answer should be written as a number, with no unit following it.

Examples with answers:
CC1(C)CC(=O)C2=C(C1)N(c1c(F)cccc1F)C(N)=C(C#N)[C@@H]2c1cccc(Cl)c1 : 5.04
O=C(NC[C@H]1CCCO1)c1cc2nc(C3CC3)cc(C(F)(F)F)n2n1 : 3.33
C#CCOc1ccc(C2C3=C(CC(C)(C)CC3=O)OC3=C2C(=O)CC(C)(C)C3)cc1OCC : 4.93
COc1ccc([C@@H]2[C@@H]3CCCC=C3C(C#N)=C(N)C2(C#N)C#N)cc1COCC(F)(F)F : 5.5
CCN(CC)S(=O)(=O)N1CCC[C@H](C(=O)NC2CCCCC2)C1 : 3.58

Find the measured logD of CC[C@H](C)NC(=O)NC(C(F)(F)F)C(F)(F)F and report it.
2.84

Supply measured logD of CCc1ccccc1NC(=O)[C@]12CC[C@](C)(C(=O)O1)C2(C)C in your reply.
3.31

Complete the entry with logD for CC(=O)c1cccc(N2C(=O)[C@@H]3[C@H](C2=O)[C@@H]2C=C[C@H]3C2=C(c2ccc(C)cc2)c2ccc(C)cc2)c1
6.25

Let me know recorded logD for O=C1/C(=C/c2ccsc2)SC(=S)N1c1cccc(C(F)(F)F)c1 , thanks.
5.8
